Value source: patent US20250195521A1

IC50 for assorted compounds
Biological target: KRAS G12V (Homo sapiens (Human), UniProt P01116+P62937, G12V)
Sequence (P01116 other isoform, or with tags, fused parts or gaps G12V): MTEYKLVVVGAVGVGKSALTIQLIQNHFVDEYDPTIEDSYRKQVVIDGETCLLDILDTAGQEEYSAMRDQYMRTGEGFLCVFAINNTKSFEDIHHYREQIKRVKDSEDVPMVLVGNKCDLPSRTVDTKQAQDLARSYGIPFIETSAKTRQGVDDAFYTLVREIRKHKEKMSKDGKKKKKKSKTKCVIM
Sequence (P62937 whole entry): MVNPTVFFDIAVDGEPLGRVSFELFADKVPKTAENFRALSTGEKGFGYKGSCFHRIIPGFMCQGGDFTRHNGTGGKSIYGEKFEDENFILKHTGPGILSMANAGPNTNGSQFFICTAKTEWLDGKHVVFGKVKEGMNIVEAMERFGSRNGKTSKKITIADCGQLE
Assay: Ras-Raf disruption/FRET/MOA assay (BRAF RBD, Cyclophilin A)
Type: biochemical
Details: read-out: KRAS G12V FRET IC50

1) CCn1c(-c2cccnc2[C@H](C)OC)c2c3cc(ccc31)-c1csc(n1)C[C@H](NC(=O)[C@H](C(C)C)N(C)C(=O)N1CC([C@H](C)N(C)C)C1)C(=O)N1CCC[C@H](N1)C(=O)OCC(C)(C)C2
100 to 1000 nM

The measured IC50 associated with CCn1c(-c2cccnc2[C@H](C)OC)c2c3cc(ccc31)-c1csc(n1)C[C@H](NC(=O)[C@H](C(C)C)N(C)C(=O)N1CC3(CC(NCCOC)C3)C1)C(=O)N1CCC[C@H](N1)C(=O)OCC(C)(C)C2 reads 100 to 1000 nM

Field IC50 (entry CCn1c(-c2cccnc2[C@H](C)OC)c2c3cc(ccc31)-c1csc(n1)C[C@H](NC(=O)N1CC[C@@H]1COC)C(=O)N1CCC[C@H](N1)C(=O)OCC(C)(C)C2 ) reads 10 to 100 nM

CCn1c(-c2cnccc2COC)c2c3cc(ccc31)-c1cc(O)cc(c1)C[C@H](NC(=O)[C@@H](OC(=O)N1CCCC1)C(C)C)C(=O)N1CCC[C@H](N1)C(=O)OCC(C)(C)C2 has a reported IC50 of 1000 to 10000 nM

So for CCn1c(-c2cccnc2[C@H](C)OC)c2c3cc(ccc31)-c1cc(O)cc(c1)C[C@H](NC(=O)[C@H](C(C)C)N(C)C(=O)[C@H]1CCN(C(=O)OC3CN(C)C3)C1)C(=O)N1CCC[C@H](N1)C(=O)OCC(C)(C)C2 , the logged IC50 turned out to be 10 to 100 nM

// recorded IC50 for CCn1c(-c2cccnc2[C@H](C)OC)c2c3cc(ccc31)-c1csc(n1)C[C@H](NC(=O)[C@H](C(C)C)N(C)C(=O)N1C[C@H](C)N(C)C[C@H]1C)C(=O)N1CCC[C@H](N1)C(=O)OCC(C)(C)C2 : 1000 to 10000 nM

CCn1c(-c2cccnc2COC)c2c3cc(ccc31)-c1cc(O)cc(c1)C[C@H](NC(=O)[C@H](C(C)C)N(C)C(=O)OC1COC1)C(=O)N1CCC[C@H](N1)C(=O)OCC(C)(C)C2 has a reported IC50 of 100 to 1000 nM

Quick note, IC50 for CCn1c(-c2cccnc2[C@H](C)OC)c2c3cc(ccc31)-c1csc(n1)C[C@H](NC(=O)[C@H](C(C)C)N(C)C(=O)N1CC3(CC(N(C)C(C)C)C3)C1)C(=O)N1CCC[C@H](N1)C(=O)OCC(C)(C)C2 landed at 100 to 1000 nM

Lookup result for CCn1c(-c2cccnc2[C@H](C)OC)c2c3cc(ccc31)-c1csc(n1)C[C@H](NC(=O)[C@H](C(C)C)N(C)C(=O)N1CC([C@@H](CO)OC)C1)C(=O)N1CCC[C@H](N1)C(=O)OCC(C)(C)C2 ; measured IC50: 100 to 1000 nM

###

Molecular target: KRAS G12V (Homo sapiens (Human), UniProt P01116+P62937, G12V)
Test: Ras-Raf disruption/FRET/MOA assay (BRAF RBD, Cyclophilin A)
Format: biochemical
Conditions: read-out: KRAS G12V FRET IC50
Reported IC50 values are given for each entry in this list.

So the reported IC50 for CCn1c(-c2cccnc2[C@H](C)OC)c2c3cc(ccc31)-c1csc(n1)C[C@H](NC(=O)[C@H](C(C)C)N(C)C(=O)[C@H]1CCN(C(C)=O)C1)C(=O)N1CCC[C@H](N1)C(=O)OCC(C)(C)C2 [Compound A244] , on KRAS G12V (Homo sapiens (Human), UniProt P01116+P62937, G12V), turned out to be 1000 to 10000 nM

Kindly note: KRAS G12V (Homo sapiens (Human), UniProt P01116+P62937, G12V), CCn1c(-c2cccnc2[C@H](C)OC)c2c3cc(ccc31)-c1csc(n1)C[C@H](NC(=O)C1CC1)C(=O)N1CCC[C@H](N1)C(=O)OCC(C)(C)C2 [Compound A367] , IC50 value reported: 100 to 1000 nM
